Sourced from paper PMC6273488

The entries below come with measured viability at 24 h, 100 µM values attached.
Test: in vitro
Assay type: cell-based
Settings: human, HepG2 cells; HepG2, 100 µM, 24 h, MTT; read-out: In vitro toxicity (% cell viability)
Unit % implied. Number only.

>  <molecule>
Cc1ccc(C2c3c(nc4n(c3=O)CCCC4)Oc3ccc4ccccc4c32)cc1 (stereo not shown)

>  <viability at 24 h, 100 µM (%)>
103

$$$$

**Q:** I would be grateful if you could share the reported viability at 24 h, 100 µM for COc1cccc(C2c3c(nc4n(c3=O)CCC4)Oc3ccc4ccccc4c32)c1 (stereo not shown) .
**A:** 97

**Q:** Next entry: O=c1c2c(nc3n1CCCC3)Oc1ccc3ccccc3c1C2c1ccccc1 (stereo not shown)
**A:** 101

**Q:** Next entry: COc1cccc(C2c3c(nc4n(c3=O)CCCC4)Oc3ccc4ccccc4c32)c1 (stereo not shown)
**A:** 112

###

The entries below come with measured inhibition at 10 µM values attached.
Biological target: horse serum BuChE (eqBuChE) (Equus caballus)
Construct: BuChE from horse serum (lyophilized powder, Sigma-Aldrich); purchased Sigma-Aldrich; host or cells: horse serum
Sequence (P81908 whole entry): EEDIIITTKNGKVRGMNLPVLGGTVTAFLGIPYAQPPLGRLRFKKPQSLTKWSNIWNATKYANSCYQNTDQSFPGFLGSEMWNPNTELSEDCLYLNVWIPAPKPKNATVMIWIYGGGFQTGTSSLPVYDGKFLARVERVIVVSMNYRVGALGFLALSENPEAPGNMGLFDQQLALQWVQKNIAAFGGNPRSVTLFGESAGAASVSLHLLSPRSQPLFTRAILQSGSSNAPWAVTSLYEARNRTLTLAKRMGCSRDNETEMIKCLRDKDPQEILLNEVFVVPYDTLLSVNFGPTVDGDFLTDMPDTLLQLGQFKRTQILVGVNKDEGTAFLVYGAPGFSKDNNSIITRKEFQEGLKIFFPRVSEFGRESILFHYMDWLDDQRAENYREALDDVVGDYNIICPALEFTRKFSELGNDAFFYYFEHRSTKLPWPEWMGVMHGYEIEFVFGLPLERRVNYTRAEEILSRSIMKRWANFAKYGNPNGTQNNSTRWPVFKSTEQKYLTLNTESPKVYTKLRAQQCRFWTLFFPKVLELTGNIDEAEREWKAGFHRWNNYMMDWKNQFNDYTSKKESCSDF
Test: Inhibition of eqBuChE (Ellman's assay)
Type: biochemical
Details: 10 µM compound
Unit % implied. Number only.

Solved cases below.
>  <compound>
Cc1ccc(C2c3ccc4ccccc4c3Oc3nc4n(c(=O)c32)CCC4)cc1 (stereo not drawn)

>  <units_of_measure>
%

>  <inhibition at 10 µM>
26.8

$$$$
>  <compound>
O=c1c2c(nc3n1CCCCC3)Oc1ccc3ccccc3c1C2c1ccccc1 (stereo not drawn)

>  <units_of_measure>
%

>  <inhibition at 10 µM>
28.4

$$$$
>  <compound>
Cc1ccc(C2c3c(nc4n(c3=O)CCCC4)Oc3ccc4ccccc4c32)cc1 (stereo not drawn)

>  <units_of_measure>
%

>  <inhibition at 10 µM>
19

$$$$
>  <compound>
Cc1ccc(C2c3ccc4ccccc4c3Oc3nc4n(c(=O)c32)CCCC4)cc1 (stereo not drawn)

>  <units_of_measure>
%

>  <inhibition at 10 µM>
24.4

$$$$

Moving on to the next compound.
**Q:** I would be grateful if you could share the reported inhibition at 10 µM for O=c1c2c(nc3n1CCC3)Oc1c(ccc3ccccc13)C2c1ccccc1 (stereo not drawn) .
**A:** 23.1

###

The entries below come with measured viability at 24 h, 30 µM values attached.
Assay: in vitro
Format: cell-based
Settings: human, HepG2 cells; HepG2, 30 µM, 24 h, MTT; read-out: In vitro toxicity (% cell viability)
Unit % implied. Number only.

Solved cases below.
>  <compound>
O=c1c2c(nc3n1CCCC3)Oc1ccc3ccccc3c1C2c1ccccc1 (stereo not shown)

>  <viability at 24 h, 30 µM [%]>
91.5

$$$$
>  <compound>
Cc1ccc(C2c3c(nc4n(c3=O)CCCC4)Oc3ccc4ccccc4c32)cc1 (stereo not shown)

>  <viability at 24 h, 30 µM [%]>
113

$$$$
>  <compound>
COc1cccc(C2c3c(nc4n(c3=O)CCC4)Oc3ccc4ccccc4c32)c1 (stereo not shown)

>  <viability at 24 h, 30 µM [%]>
99.2

$$$$

**Q:** I would be grateful if you could share the reported viability at 24 h, 30 µM for COc1cccc(C2c3c(nc4n(c3=O)CCCC4)Oc3ccc4ccccc4c32)c1 (stereo not shown) .
**A:** 104
